TESTED ON: human GPR119 (Homo sapiens, UniProt Q8TDV5)
Construct: expression vector for human GPR119 cDNA (Acc. No. NP_848566); Min-6/hGPR119
Sequence (Q8TDV5 1-335): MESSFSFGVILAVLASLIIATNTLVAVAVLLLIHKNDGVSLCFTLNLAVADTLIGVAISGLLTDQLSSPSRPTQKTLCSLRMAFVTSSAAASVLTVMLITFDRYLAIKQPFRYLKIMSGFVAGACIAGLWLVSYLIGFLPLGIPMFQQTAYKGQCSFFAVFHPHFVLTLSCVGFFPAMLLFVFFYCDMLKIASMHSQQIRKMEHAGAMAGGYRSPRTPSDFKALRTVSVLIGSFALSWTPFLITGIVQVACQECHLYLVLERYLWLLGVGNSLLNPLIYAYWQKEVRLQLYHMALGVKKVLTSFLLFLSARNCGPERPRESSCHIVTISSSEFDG
ASSAY REMARKS: AlphaScreen cAMP assay in MIN6 cells stably transfected with human GPR119
APPLIED CONDITIONS: Min-6/hGPR119 cells, 45 min at room temperature
PROPERTY LABEL: EC50 (nM)

[P] COC1CCN(C(=O)c2ccc(-c3ncc(C(=O)N(C4CC4)C4CCN(C(=O)OC(C)(C)C)CC4)cn3)cc2)CC1
[Q] CN(CCO)C(=O)c1ccc(-c2ncc(C(=O)N(C3CC3)C3CCN(C(=O)OC(C)(C)C)CC3)cn2)cc1F
Query: Two entries are listed, P and Q . Which one carries the higher EC50? Answer with the label corresponding to your selection.
Result: Q

###

Listed here are compounds together with their documented EC50.
TESTED ON: mutant form of the human GPR119 receptor (Homo sapiens, UniProt Q8TDV5, S329A/T327A)
ASSAY REMARKS: LANCE cAMP-384 assay in HEK293 cells stably expressing a mutant form of the human GPR119 receptor
APPLIED CONDITIONS: mutant human GPR119, LANCE cAMP-384 Kit, 20 min at 37° C., read-out: EC50 (cAMP accumulation)
Provide only the numeric value, understood in µM.

COMPOUND	TESTED ON	EC50 [µM]
Cc1ncn(-c2cnc(C(=O)N(C3CC3)C3CCN(C(=O)OC(C)C)CC3)cn2)n1 [Example 255]	mutant form of the human GPR119 receptor (Homo sapiens, UniProt Q8TDV5, S329A/T327A)	1.55
Cc1nccn1-c1ncc(C(=O)N(C2CC2)[C@H]2CCN(C(=O)OC(C)C)C[C@H]2F)cn1 [Example 251]	mutant form of the human GPR119 receptor (Homo sapiens, UniProt Q8TDV5, S329A/T327A)	0.587
CC(C)OC(=O)N1CC[C@@H](N(C(=O)c2cnc(-n3cncn3)cn2)C2CC2)[C@@H](F)C1 [Example 248]	mutant form of the human GPR119 receptor (Homo sapiens, UniProt Q8TDV5, S329A/T327A)	0.054

# evaluate next
Query: API: value(readout= EC50, system= mutant form of the human GPR119 receptor (Homo sapiens, UniProt Q8TDV5, S329A/T327A), query= Cc1ncnn1-c1ccc(C(=O)N(C2CC2)[C@@H]2CCN(C(=O)OC(C)C)C[C@@H]2F)cn1 [Example 252] )
Result: 0.193

###

TESTED ON: human GPR119 (Homo sapiens)
Construct: expression vector for human GPR119 cDNA (Acc. No. NP_848566); Min-6/hGPR119
ASSAY REMARKS: AlphaScreen cAMP assay in MIN6 cells stably transfected with human GPR119
APPLIED CONDITIONS: Min-6/hGPR119 cells, 45 min at room temperature
pEC50: −log10 of the molar value.
PROPERTY LABEL: pEC50

MOLECULE	TEST VALUE
CN(CC1CCOC1)C(=O)c1ccc(-c2ncc(C(=O)N(C3CC3)C3CCN(C(=O)OC(C)(C)C)CC3)cn2)c(F)c1 (centres unmarked)	6.40
COC1CCN(C(=O)c2ccc(-c3ncc(C(=O)N(C4CC4)C4CCN(C(=O)OC(C)(C)C)CC4)cn3)cc2F)CC1	6.66
CC(C)(C)OC(=O)N1CCC(N(C(=O)c2coc(-c3ccc(C#N)c(F)c3)n2)C2CC2)CC1	7.38
CC(C)(C)OC(=O)N1CCC(N(C(=O)c2cnc(-c3ccc(C(=O)NCC4(C)CCCO4)c(F)c3)nc2)C2CC2)CC1 (centres unmarked)	6.64
COC[C@H]1CCCN1C(=O)c1ccc(-c2ncc(C(=O)N(C3CC3)C3CCN(C(=O)OC(C)(C)C)CC3)cn2)cc1F	6.42
CC(C)(C)OC(=O)N1CCC(N(C(=O)c2cnc(-c3ccc(CC(=O)NC[C@H]4CCCC[C@H]4O)cc3)nc2)C2CC2)CC1	6.36
CC(C)(C)OC(=O)N1CCC(N(C(=O)c2cnc(-c3ccc(C(=O)N4CCCOCC4)c(F)c3)nc2)C2CC2)CC1	6.56
COc1cc(-c2ncc(C(=O)N(C3CC3)C3CCN(C(=O)OC(C)(C)C)CC3)cn2)ccn1	7.34
CC(C)(C)OC(=O)N1CCC(N(C(=O)c2cnc(-c3ccc(C(=O)NC4CCC(O)CC4)cc3)nc2)C2CC2)CC1 (centres unmarked)	6.42
CC(C)(C)OC(=O)N1CCC(N(C(=O)c2cnc(-c3ccc(C#N)c(F)c3)o2)C2CC2)CC1	7.46

[a] COCC(C)N(C)C(=O)c1ccc(-c2ncc(C(=O)N(C3CC3)C3CCN(C(=O)OC(C)(C)C)CC3)cn2)c(F)c1 (centres unmarked)
[b] Cc1cnc(CNC(=O)c2ccc(-c3ncc(C(=O)N(C4CC4)C4CCN(C(=O)OC(C)(C)C)CC4)cn3)cc2)s1
Query: When their pEC50 values are compared, which is larger, a or b ? Pick one and reply with its label.
Result: b

[I] CC(C)(C)OC(=O)N1CCC(N(C(=O)c2cc(-c3cccc([N+](=O)[O-])c3)[nH]n2)C2CC2)CC1
[II] COC[C@@H]1CCCN1C(=O)c1ccc(-c2ncc(C(=O)N(C3CC3)C3CCN(C(=O)OC(C)(C)C)CC3)cn2)cc1
Query: Could you tell me which of I and II has the lower pEC50 reading? Pick one and reply with its label.
Result: I
(I: 6.03, II: 6.52)

###

TESTED ON: human GPR119 (Homo sapiens)
Construct: expression vector for human GPR119 cDNA (Acc. No. NP_848566); Min-6/hGPR119
Sequence (Q8TDV5 1-335): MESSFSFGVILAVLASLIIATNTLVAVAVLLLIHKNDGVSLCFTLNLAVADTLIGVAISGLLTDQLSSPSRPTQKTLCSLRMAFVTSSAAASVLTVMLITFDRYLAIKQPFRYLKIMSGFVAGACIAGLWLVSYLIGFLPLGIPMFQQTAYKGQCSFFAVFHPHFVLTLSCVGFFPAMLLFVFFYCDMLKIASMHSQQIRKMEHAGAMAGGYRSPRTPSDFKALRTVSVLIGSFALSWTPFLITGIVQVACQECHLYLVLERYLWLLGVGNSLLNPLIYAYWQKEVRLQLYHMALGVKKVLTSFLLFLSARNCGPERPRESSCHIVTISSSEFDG
ASSAY REMARKS: AlphaScreen cAMP assay in MIN6 cells stably transfected with human GPR119
APPLIED CONDITIONS: Min-6/hGPR119 cells, 45 min at room temperature
pEC50: −log10 of the molar value.
PROPERTY LABEL: pEC50

// known answers, use as guide
COMPOUND	pEC50
CN(CC1CCOCC1)C(=O)c1ccc(-c2ncc(C(=O)N(C3CC3)C3CCN(C(=O)OC(C)(C)C)CC3)cn2)cc1 [Example 193]	6.52
COC1CN(C(=O)c2ccc(-c3ncc(C(=O)N(C4CC4)C4CCN(C(=O)OC(C)(C)C)CC4)cn3)cc2)C1 [Example 226]	6.75

[I] CC(C)(C)OC(=O)N1CCC(N(C(=O)c2cn(-c3ccc(S(C)(=O)=O)cc3)cn2)C2CC2)CC1 [Example 17]
[II] CCOCCNC(=O)c1ccc(-c2ncc(C(=O)N(C3CC3)C3CCN(C(=O)OC(C)(C)C)CC3)cn2)cc1F [Example 102]
Query: Between these two entries, I and II , state which has the higher pEC50. # answer = label of selected item
Result: II
(II: 6.96, I: 6.17)

###

TESTED ON: human GPR119 (Homo sapiens, UniProt Q8TDV5)
Construct: expression vector for human GPR119 cDNA (Acc. No. NP_848566); Min-6/hGPR119
Sequence (Q8TDV5 1-335): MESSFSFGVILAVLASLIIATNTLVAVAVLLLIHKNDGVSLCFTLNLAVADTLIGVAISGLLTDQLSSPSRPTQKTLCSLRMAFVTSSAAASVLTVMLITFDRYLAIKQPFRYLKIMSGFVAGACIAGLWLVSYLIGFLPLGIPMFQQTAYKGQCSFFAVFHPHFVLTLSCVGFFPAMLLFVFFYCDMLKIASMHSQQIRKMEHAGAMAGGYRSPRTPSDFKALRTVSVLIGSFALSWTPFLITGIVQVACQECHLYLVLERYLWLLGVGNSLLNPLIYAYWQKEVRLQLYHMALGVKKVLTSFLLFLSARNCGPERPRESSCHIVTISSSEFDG
ASSAY REMARKS: AlphaScreen cAMP assay in MIN6 cells stably transfected with human GPR119
APPLIED CONDITIONS: Min-6/hGPR119 cells, 45 min at room temperature
pEC50: −log10 of the molar value.
PROPERTY LABEL: pEC50

Some compounds with known pEC50 results, for comparison:
COMPOUND	pEC50
COC[C@H]1CCCN1C(=O)c1ccc(-c2ncc(C(=O)N(C3CC3)C3CCN(C(=O)OC(C)(C)C)CC3)cn2)c(F)c1 [Example 134]	6.25
CN(CCOCC1CC1)C(=O)c1ccc(-c2ncc(C(=O)N(C3CC3)C3CCN(C(=O)OC(C)(C)C)CC3)cn2)cc1 [Example 220]	6.74
Cc1cc(C)n(-c2ncc(C(=O)N(C3CC3)C3CCN(C(=O)OC(C)(C)C)CC3)cn2)n1 [Example 57]	5.43
CN(CC#N)C(=O)c1ccc(-c2ncc(C(=O)N(C3CC3)C3CCN(C(=O)OC(C)(C)C)CC3)cn2)cc1F [Example 132]	7.01
CC(C)(C)OC(=O)N1CCC(N(C(=O)c2cnc(-c3ccc(CC(=O)NC4CCOCC4)cc3)nc2)C2CC2)CC1 [Example 213]	6.28

[I] CC(C)(C)OC(=O)N1CCC(N(C(=O)c2cnc(-n3cnnc3)nc2)C2CC2)CC1 [Example 100]
[II] CN(CC1CCOC1)C(=O)c1ccc(-c2ncc(C(=O)N(C3CC3)C3CCN(C(=O)OC(C)(C)C)CC3)cn2)cc1 (stereo not shown) [Example 202]
Query: Kindly identify the item with the lower pEC50 figure among these two: I and II Select an item and report its label.
Result: I
(I: 6.09, II: 6.77)

Origin of the recorded values: patent US20140045823A1
